Assay: Cell viability measurement (MTS), Calu-3 cells
Type: cell-based
Conditions: human, 3 μM
Experimental: Experimental Example 3: Cell Viability Measurement Vero cell line (VERO01WCB-1201, Ministry of Food and Drug Safety, Republic of Korea), Calu-3 cell line (KCLB #30055, Korea Cell Line Bank (KCLB), Republic of Korea), CellTiter 96® AQueous One Solution Cell Proliferation Assay kit (Promega, cat. #G3582), and Infinite M200 microplate reader (Tecan). […] The cell viability (also, referred to as cell survival rate) (%) by compound treatment was calculated using the following analysis method. […]
measure-name: viability at 48 h, 3 µM

Reference set (5 entries):
c1ccc(-c2ccc(Nc3cccc(-c4nc5ccccc5[nH]4)c3)cc2)nc1 [Example 20] | 50 to 80%
c1ccc(-c2ccc(Nc3cccc(-c4nc5ccccc5[nH]4)c3)cc2)cc1 [Example 19] | 50 to 80%
c1cc(Nc2ncc(-c3cncnc3)cn2)cc(-c2nc3ccccc3[nH]2)c1 [Example 70] | 50 to 80%
c1ccc(-c2ccc(Nc3cccc(-c4nc5ccccc5[nH]4)c3)nc2)nc1 [Example 59] | 50 to 80%
Fc1cc2nc(-c3cccc(Nc4ncc(-c5cccnn5)cn4)c3)[nH]c2cc1F [Example 99] | > 80%

INPUT: // viability at 48 h, 3 µM lookup, key: COc1ccc2nc(-c3cccc(Nc4ncc(-c5cccnn5)cn4)c3)[nH]c2c1 [Example 108]
OUTPUT: > 80%

INPUT: Also, c1cnc(-c2cnc(Nc3cccc(-c4nc5ccccc5[nH]4)c3)nc2)nc1 [Example 71] please.
OUTPUT: 50 to 80%

INPUT: Also, c1cc(Nc2ccc(-c3cccnn3)cc2)cc(-c2nc3ccccc3[nH]2)c1 [Example 21] please.
OUTPUT: 50 to 80%

INPUT: Also, Cc1ccc2nc(-c3cccc(Nc4ccc(-c5cccnn5)cc4)c3)[nH]c2c1 [Example 105] please.
OUTPUT: 50 to 80%

INPUT: Also, c1ccc(-c2cnc(Nc3cccc(-c4nc5ccccc5[nH]4)c3)nc2)nc1 [Example 44] please.
OUTPUT: 50 to 80%
